Data provenance is ChEMBL document CHEMBL3875230.

Endpoint: pIC50. System: Plasminogen (Homo sapiens, UniProt P00747). Items follow.
Sequence (P00747 97-580 limits assumed): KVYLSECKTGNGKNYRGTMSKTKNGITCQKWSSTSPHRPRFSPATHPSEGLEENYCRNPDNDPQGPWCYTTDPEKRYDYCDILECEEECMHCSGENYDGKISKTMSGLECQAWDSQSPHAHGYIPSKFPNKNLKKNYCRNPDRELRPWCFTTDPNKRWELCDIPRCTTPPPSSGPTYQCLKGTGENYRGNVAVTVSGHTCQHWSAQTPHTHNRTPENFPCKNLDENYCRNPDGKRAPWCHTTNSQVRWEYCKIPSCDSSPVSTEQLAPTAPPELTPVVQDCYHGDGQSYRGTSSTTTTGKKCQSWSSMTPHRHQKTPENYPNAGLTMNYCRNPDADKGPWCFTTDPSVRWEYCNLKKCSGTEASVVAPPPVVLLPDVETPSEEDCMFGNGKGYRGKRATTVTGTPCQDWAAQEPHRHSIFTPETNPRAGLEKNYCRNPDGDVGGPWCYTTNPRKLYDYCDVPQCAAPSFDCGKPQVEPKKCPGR
Sequence (P00747 581-810 limits assumed): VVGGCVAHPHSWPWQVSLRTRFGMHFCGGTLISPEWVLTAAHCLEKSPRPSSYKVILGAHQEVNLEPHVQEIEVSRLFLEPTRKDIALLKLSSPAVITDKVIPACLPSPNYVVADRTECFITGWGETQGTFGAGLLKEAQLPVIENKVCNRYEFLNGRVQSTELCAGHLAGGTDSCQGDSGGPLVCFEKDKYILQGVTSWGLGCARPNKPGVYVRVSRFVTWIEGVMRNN
pIC50: −log10 of the molar value.

- Compound: "Cc1nc(N)cc2c1CNC(=O)c1cnn(c1)Cc1ccc(Cn3cccn3)cc1OCC/C=C/CCCO2"
  Prefix Operator: "="
  pIC50: 5.00
- Compound: "Cc1nc(N)cc2c1CNC(=O)c1cnn(c1)Cc1ccc(Cn3cccn3)cc1OCCC/C=C\\CCO2"
  Prefix Operator: "<"
  pIC50: 3.70
- Compound: "Cc1nc(N)cc2c1CNC(=O)c1cnn(c1)Cc1ccc(Cn3cccn3)cc1OCCCC=CCCO2 (mixture of isomers)"
  Prefix Operator: "="
  pIC50: 4.67

###

- Method Notes: Cmax in Sprague-Dawley rat plasma at 20 mg/kg administered via oral gavage measured up to 24 hrs by LC-MS/MS analysis
- Type: ADME, organism-based
- Design: dose 20 mg/kg, route oral

- Structure As Smiles: "Cc1nc(N)ccc1CNC(=O)c1cnn(Cc2ccc(Cn3cccn3)cc2)c1"
  Unit Of Measure: "ng/mL"
  Cmax: 25

###

- Method Notes: Half life in rat liver microsomes in presence of NADPH by LC/MS/MS analysis
- Assay type: ADME

- Compound: "Cc1nc(N)ccc1CNC(=O)c1cnn(Cc2ccc(Cn3cccn3)cc2)c1"
  half-life: "48 min"
- Compound: "Cc1nc(N)cc2c1CNC(=O)c1cnn(c1)Cc1ccc(Cn3cccn3)cc1OCCC/C=C/CCO2"
  half-life: "< 5 min"
- Compound: "Cc1nc(N)cc2c1CNC(=O)c1cnn(c1)Cc1ccc(Cn3cccn3)cc1OCC/C=C/CCCO2"
  half-life: "< 5 min"
- Compound: "Cc1nc(N)cc2c1CNC(=O)c1cnn(c1)Cc1ccc(Cn3cccn3)cc1OCCCC=CCCO2 (mixture of isomers)"
  half-life: "< 5 min"
- Compound: "Cc1nc(N)cc2c1CNC(=O)c1cnn(c1)Cc1ccc(Cn3cccn3)cc1OCCC/C=C\\CCO2"
  half-life: "< 5 min"

###

- Assayed Target: Coagulation factor XII (Homo sapiens)
- Sequence (P00748 whole entry): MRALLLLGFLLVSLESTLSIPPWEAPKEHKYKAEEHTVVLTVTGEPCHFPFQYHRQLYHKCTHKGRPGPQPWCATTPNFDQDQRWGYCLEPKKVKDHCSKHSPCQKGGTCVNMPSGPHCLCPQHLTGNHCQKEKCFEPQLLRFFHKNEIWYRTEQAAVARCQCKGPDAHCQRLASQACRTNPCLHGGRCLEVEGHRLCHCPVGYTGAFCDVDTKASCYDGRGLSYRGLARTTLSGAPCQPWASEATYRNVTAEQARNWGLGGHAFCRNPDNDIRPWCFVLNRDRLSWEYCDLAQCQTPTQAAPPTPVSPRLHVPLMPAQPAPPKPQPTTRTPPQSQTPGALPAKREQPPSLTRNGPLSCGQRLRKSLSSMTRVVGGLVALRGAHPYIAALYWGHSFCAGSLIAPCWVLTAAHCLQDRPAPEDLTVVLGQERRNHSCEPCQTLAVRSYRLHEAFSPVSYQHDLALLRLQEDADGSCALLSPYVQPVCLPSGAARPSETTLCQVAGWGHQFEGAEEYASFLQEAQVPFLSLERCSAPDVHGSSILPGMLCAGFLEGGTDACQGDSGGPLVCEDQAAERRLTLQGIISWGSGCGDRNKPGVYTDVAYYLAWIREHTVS
pIC50: −log10 of the molar value.
Value Type: pIC50

- Molecule: "Cc1nc(N)cc2c1CNC(=O)c1cnn(c1)Cc1ccc(Cn3cccn3)cc1OCCCC=CCCO2 (mixture of isomers)"
  Reading: "< 3.70"

###

- Assayed Target: Coagulation factor X (Homo sapiens, UniProt P00742)
- Sequence (P00742 41-179 limits assumed): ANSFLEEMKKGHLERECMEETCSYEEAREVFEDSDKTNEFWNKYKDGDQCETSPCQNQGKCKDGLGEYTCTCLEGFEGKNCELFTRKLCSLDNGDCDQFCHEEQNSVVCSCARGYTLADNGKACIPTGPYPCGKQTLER
- Sequence (P00742 235-488 limits assumed): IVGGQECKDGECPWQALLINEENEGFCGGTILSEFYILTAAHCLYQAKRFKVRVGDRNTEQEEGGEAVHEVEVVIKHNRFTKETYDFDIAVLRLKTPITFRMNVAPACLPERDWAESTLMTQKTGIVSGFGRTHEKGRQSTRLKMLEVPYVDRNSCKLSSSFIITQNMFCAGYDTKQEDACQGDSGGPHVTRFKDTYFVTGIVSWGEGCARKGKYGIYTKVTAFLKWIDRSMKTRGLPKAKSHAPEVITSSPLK
Value Type: IC50

- Compound: "Cc1nc(N)ccc1CNC(=O)c1cnn(Cc2ccc(Cn3cccn3)cc2)c1"
  Reading: "> 1000 µM"
- Compound: "Cc1nc(N)cc2c1CNC(=O)c1cnn(c1)Cc1ccc(Cn3cccn3)cc1OCC/C=C/CCCO2"
  Reading: "> 200 µM"
- Compound: "Cc1nc(N)cc2c1CNC(=O)c1cnn(c1)Cc1ccc(Cn3cccn3)cc1OCCC/C=C\\CCO2"
  Reading: "> 200 µM"
- Compound: "Cc1nc(N)cc2c1CNC(=O)c1cnn(c1)Cc1ccc(Cn3cccn3)cc1OCCCC=CCCO2 (mixture of isomers)"
  Reading: "> 200 µM"
- Compound: "Cc1nc(N)cc2c1CNC(=O)c1cnn(c1)Cc1ccc(Cn3cccn3)cc1OCCC/C=C/CCO2"
  Reading: "> 200 µM"

###

- Method Notes: Inhibition of bovine trypsin using S-2765 as substrate incubated for 30 mins followed by substrate addition
- Set-up: species or system Bos taurus

- Molecule: "Cc1nc(N)cc2c1CNC(=O)c1cnn(c1)Cc1ccc(Cn3cccn3)cc1OCCC/C=C/CCO2"
  IC50: "> 200 µM"
- Molecule: "Cc1nc(N)cc2c1CNC(=O)c1cnn(c1)Cc1ccc(Cn3cccn3)cc1OCC/C=C/CCCO2"
  IC50: "> 200 µM"
- Molecule: "Cc1nc(N)cc2c1CNC(=O)c1cnn(c1)Cc1ccc(Cn3cccn3)cc1OCCC/C=C\\CCO2"
  IC50: "> 200 µM"
- Molecule: "Cc1nc(N)cc2c1CNC(=O)c1cnn(c1)Cc1ccc(Cn3cccn3)cc1OCCCC=CCCO2 (mixture of isomers)"
  IC50: "> 200 µM"
- Molecule: "Cc1nc(N)ccc1CNC(=O)c1cnn(Cc2ccc(Cn3cccn3)cc2)c1"
  IC50: "578 µM"
